Recorded GI50 by entry
Test system: NCI-H460 lung
MEASUREMENT NAME: GI50

COMPOUND: CC1SC(c2c(Cl)cccc2Cl)N(NC(=O)c2[nH]c3ccc(F)cc3c2-c2ccccc2)C1=O (stereo unspecified)
MEASUREMENT TARGET: NCI-H460 lung
MEASUREMENT NAME: GI50
OBSERVED: 2.03 µM

COMPOUND: CCCCN1CCN(c2ccc3nc(-c4ccc5nc(-c6ccc(C(F)(F)F)cc6)[nH]c5c4)[nH]c3c2)CC1
MEASUREMENT TARGET: NCI-H460 lung
MEASUREMENT NAME: GI50
OBSERVED: 0.64 µM

COMPOUND: Cc1[c-]onc1C.Cc1[c-]onc1C.[Ag].[Ag].[NH-]S(=O)(=O)c1ccc(N=Nc2cc(N=Nc3ccc(S([NH-])(=O)=O)cc3)c3c(NC(=O)C(Cl)Cl)cccc3c2OC(=O)C(Cl)Cl)cc1
MEASUREMENT TARGET: NCI-H460 lung
MEASUREMENT NAME: GI50
OBSERVED: 6.53 µM

COMPOUND: C[C@H](Nc1ncnc2nc[nH]c12)c1cc2cccc(Cl)c2c(=O)n1-c1ccccc1
MEASUREMENT TARGET: NCI-H460 lung
MEASUREMENT NAME: GI50
OBSERVED: 12.6 µM

COMPOUND: C=C1C(=O)O[C@H]2[C@H]1CC/C(COC(=O)NCc1ccccc1OC)=C\CC[C@@]1(C)O[C@@H]21
MEASUREMENT TARGET: NCI-H460 lung
MEASUREMENT NAME: GI50
OBSERVED: 3.73 µM

COMPOUND: COc1ccc(C(=O)/C=C/c2ccc(/C=C/c3cc(OC)c(OC)c(OC)c3)cc2)cc1
MEASUREMENT TARGET: NCI-H460 lung
MEASUREMENT NAME: GI50
OBSERVED: 8.65 µM

----------
Tested on: OVCAR-3 ovarian
PROTOCOL: NCI tumour cell line growth inhibition, 48 h
Measured TGI accompanies every entry in the list below.

SMILES STRUCTURE: CCC[C@H]1C(=O)N=C(N)N1C(=O)OCc1ccccc1
TGI: > 100 µM
//
SMILES STRUCTURE: CCNC(=O)Nc1ccccn1
TGI: > 100 µM
//
SMILES STRUCTURE: O=C(O)[C@@H]1C[C@@H](O)CN1C(=O)OCc1ccccc1
TGI: > 100 µM

----------
System: KM12 colon
PROTOCOL: NCI tumour cell line growth inhibition, 48 h
Consider the following molecules and their measured GI50 readings.

MOLECULE: O=CNc1c(Cl)cc2c(c1Cl)Cc1cc([N+](=O)[O-])ccc1-2
GI50: 2510 nM
--
MOLECULE: CCCCCCCCCC[C@H](O)[C@H]1CC[C@H]([C@H]2CC[C@H]([C@H](O)CC[C@H](O)CCCCCCC[C@@H](O)CC3=C[C@H](C)OC3=O)O2)O1
GI50: 38100 nM
--
MOLECULE: CCN1C(=O)N(CC)C2C1NN=c1s/c(=C\c3cccnc3)c(=O)n12 (stereo not given)
GI50: 464 nM
--
MOLECULE: COc1ccc2c(c1)O/C(=C\c1cccc(OCC(=O)Nc3nc4c(s3)CCCC4)c1)C2=O
GI50: 10400 nM
--
MOLECULE: Cc1ccc(/C=C2\CN(C(=O)OC(C)(C)C)C/C(=C\c3ccc(C)cc3)C2=O)cc1
GI50: 149 nM

----------
# Lookup of reported log10(TGI) keyed by entry
Tested on: NCI-H226 lung
PROTOCOL: NCI tumour cell line growth inhibition, 48 h
MEASUREMENT NAME: log10(TGI) (log10 of the value in µM)

COMPOUND: COc1c(CCC[P+](c2ccccc2)(c2ccccc2)c2ccccc2)cc2c(c1OC)OCO2
OBSERVED: 1.63

COMPOUND: O=C(NC(Cc1c[nH]c2ccccc12)C(=O)O)/C(=C/c1ccccc1O)NC(=O)c1ccccc1 (configuration not stated)
OBSERVED: 1.79

COMPOUND: O=C(O)c1ccc([Se][Se]c2ccc(C(=O)O)cc2)cc1
OBSERVED: 1.88

COMPOUND: C=CCC1([C@H](C)[C@@H](OC(C)=O)c2cc(OC)c(OC)c(OC)c2)C[C@@H](OC)CCC1=O (some centres not stated)
OBSERVED: 1.65

COMPOUND: COc1cc(Cl)cc(-c2nn(C(=O)NCCN3CCOCC3)cc2-c2ccncc2)c1
OBSERVED: 1.69

COMPOUND: Cc1occc1C(=S)Nc1ccc(Cl)c(COC(C)(C)C)c1
OBSERVED: 1.53

COMPOUND: ClCCn1c(CCl)nc2ccc(Cl)cc21
OBSERVED: -0.35

----------
Known TGI of a selection of molecules
Test system: SK-MEL-2 melanoma
PROTOCOL: NCI tumour cell line growth inhibition, 48 h
MEASUREMENT NAME: TGI

MOLECULE: O=C(O)[C@@H]1C[C@@H](O)CN1C(=O)OCc1ccccc1
MEASUREMENT TARGET: SK-MEL-2 melanoma
OBSERVED: > 100 µM
--
MOLECULE: COc1ccc(C(=O)/C=C/c2ccc(/C=C/c3cc(OC)c(OC)c(OC)c3)cc2)cc1
MEASUREMENT TARGET: SK-MEL-2 melanoma
OBSERVED: > 100 µM
--
MOLECULE: COc1c2c(c3c(c1CCC(=O)O)OC(C)(C)C=C3)OC(C)(C)C=C2
MEASUREMENT TARGET: SK-MEL-2 melanoma
OBSERVED: > 100 µM
--
MOLECULE: CCOC(=O)C1=C(C(C)=O)CSC(c2ccccc2)=N1
MEASUREMENT TARGET: SK-MEL-2 melanoma
OBSERVED: > 100 µM
--
MOLECULE: C=C(C)CCC(=O)[C@](C)(O)[C@H]1[C@H](O)C[C@@]2(C)[C@@H]3CCc4c(cc(OC5OC(CO)C(O)C(O)C5O)c(O)c4C)C3(C)C(=O)C[C@]12C (stereo not given in full)
MEASUREMENT TARGET: SK-MEL-2 melanoma
OBSERVED: > 100 µM

----------
MDA-MB-435: reported GI50 for various compounds.

COMPOUND: COC(=O)[C@H](Cc1cn(C)cn1)NC(=O)[C@H](Cc1c[nH]c2ccccc12)NC(=O)Nc1cc(C(F)(F)F)cc(C(F)(F)F)c1
GI50: > 10 µM
//
COMPOUND: C[C@H](Nc1ncnc2nc[nH]c12)c1cc2cccc(Cl)c2c(=O)n1-c1ccccc1
GI50: 19.4 µM
//
COMPOUND: COc1ccc(N2C(C)=C(C#N)C34C(=O)N(c5ccccc5)C(=O)C3=C(O)C=CC24O)cc1 (stereo not drawn)
GI50: 5.5 µM

----------
Catalogue of TGI readings, one per entry.
System: UO-31 renal
PROTOCOL: NCI tumour cell line growth inhibition, 48 h

COMPOUND: NC(=S)N/N=C(/CC(=O)c1ccccc1)C(=O)Nc1ccc(Cl)c(Cl)c1
TGI: > 100 µM
//
COMPOUND: Cc1cc(N(CCC#N)S(=O)(=O)c2ccccc2)ccc1/C=C1N=C(/C=C/c2ccccc2)OC\1=O
TGI: > 100 µM
//
COMPOUND: C1CCSCCCCSCCCCSCCCCSC1
TGI: > 100 µM
//
COMPOUND: O=C(O)c1ccc([Se][Se]c2ccc(C(=O)O)cc2)cc1
TGI: 77.7 µM
//
COMPOUND: Nc1ccn(Cc2ccc(C34CC5CC(CC(C5)C3)C4)c(O)c2)c(=O)n1
TGI: > 100 µM
//
COMPOUND: CNS(=O)(=O)NN(C)S(=O)(=O)c1ccc(F)cc1
TGI: > 100 µM
//
COMPOUND: CSCCC(NCc1c(O)ccc2c(-c3ccccc3)cc(=O)oc12)C(=O)O (stereo unspecified)
TGI: > 100 µM
//
COMPOUND: COC(=O)c1ccccc1/C=C1/Cc2ccccc2C1=O
TGI: > 100 µM
//
COMPOUND: Cc1sc(C(=O)Nc2cc(C(=O)NCCCN(C)C)n(C)c2)cc1NC(=O)CCCN1C(=O)c2cccc3cccc(c23)C1=O
TGI: > 100 µM
//
COMPOUND: Cc1ccc(C(=O)O/N=C2/CCC/C2=C\c2ccccc2)cc1
TGI: > 100 µM
//
COMPOUND: CC(C)NC[C@@H](C(=O)N1CCN(c2ncnc3c2[C@H](C)C[C@H]3O)CC1)c1ccc(Cl)cc1
TGI: > 87.3 µM

----------
Tested on: SK-OV-3 ovarian
PROTOCOL: NCI tumour cell line growth inhibition, 48 h

COMPOUND: COc1nc(NC2OCC(OC(C)=O)C(OC(C)=O)C2OC(C)=O)c(N=CC=Nc2c(NC3OCC(OC(C)=O)C(OC(C)=O)C3OC(C)=O)nc(OC)n(C)c2=O)c(=O)n1C (stereo not drawn)
MEASUREMENT TARGET: SK-OV-3 ovarian
TGI: > 100 µM

COMPOUND: CC(C)(C)C1=Cc2cc3cc(C(C)(C)C)[nH]c(=O)c3cc2S(=O)(=O)N1
MEASUREMENT TARGET: SK-OV-3 ovarian
TGI: > 100 µM

COMPOUND: COc1cc2c(cc1OC)C1c3ccccc3CCN1CC2 (stereo not drawn)
MEASUREMENT TARGET: SK-OV-3 ovarian
TGI: > 100 µM

COMPOUND: O=C1CCSSCCC(=O)NCCN1
MEASUREMENT TARGET: SK-OV-3 ovarian
TGI: > 100 µM

COMPOUND: Cc1cn2c(/C=C3/C(=O)Nc4cccc(Cl)c43)c(Cl)nc2s1
MEASUREMENT TARGET: SK-OV-3 ovarian
TGI: > 100 µM

COMPOUND: Cc1ccc2c(ccc3c[n+]4c5ccccc5ccc4n32)c1
MEASUREMENT TARGET: SK-OV-3 ovarian
TGI: 6.94 µM

COMPOUND: CC1(C)C(c2ccccc2)=[N+]([O-])C(C)(C)N1O
MEASUREMENT TARGET: SK-OV-3 ovarian
TGI: > 10 µM

COMPOUND: Cc1c(C(=O)/C=C/c2csc3ccccc23)[n+](=O)c2ccccc2n1[O-]
MEASUREMENT TARGET: SK-OV-3 ovarian
TGI: 4.95 µM

COMPOUND: Cc1ccc(C(=O)O/N=C2/CCC/C2=C\c2ccccc2)cc1
MEASUREMENT TARGET: SK-OV-3 ovarian
TGI: > 100 µM

COMPOUND: CN(C)NC(=S)Nc1ccccc1Br
MEASUREMENT TARGET: SK-OV-3 ovarian
TGI: > 100 µM

COMPOUND: O=C([O-])c1ccccc1Nc1ccccn1.O=C([O-])c1ccccc1Nc1ccccn1.[Ni+2]
MEASUREMENT TARGET: SK-OV-3 ovarian
TGI: > 100 µM

COMPOUND: CNC(=O)OCc1nc(SC2CCCCO2)n(C)c1COC(=O)NC (stereo not drawn)
MEASUREMENT TARGET: SK-OV-3 ovarian
TGI: > 100 µM

COMPOUND: COC(=O)c1ccccc1/C=C1/Cc2ccccc2C1=O
MEASUREMENT TARGET: SK-OV-3 ovarian
TGI: > 100 µM

COMPOUND: Cc1ccc(/C=C2\CN(C(=O)OC(C)(C)C)C/C(=C\c3ccc(C)cc3)C2=O)cc1
MEASUREMENT TARGET: SK-OV-3 ovarian
TGI: 97.5 µM

COMPOUND: COc1ccc(-c2ccc(/C=N/n3c(COc4ccc(Cl)cc4Cl)n[nH]c3=S)o2)c([N+](=O)[O-])c1
MEASUREMENT TARGET: SK-OV-3 ovarian
TGI: > 100 µM

COMPOUND: C=C1C(=O)OC2/C=C(\CO)C(OC(C)=O)CC(O)/C(C)=C/C(OC(=O)C(C)CC)C12 (stereo not drawn)
MEASUREMENT TARGET: SK-OV-3 ovarian
TGI: > 100 µM

COMPOUND: CSCCC(NCc1c(O)ccc2c(-c3ccccc3)cc(=O)oc12)C(=O)O (stereo not drawn)
MEASUREMENT TARGET: SK-OV-3 ovarian
TGI: > 100 µM

COMPOUND: Cc1cc(-c2nc3c(O)cccc3s2)ccc1N
MEASUREMENT TARGET: SK-OV-3 ovarian
TGI: > 100 µM
